assay: reducers of endogenous Her2 protein level, primary screen, SKBR3 breast tumor cells, AlphaScreen, ATP viability (AID 461); conditions: 18-24 h, measured here: SKBR3 viability, ATP luminescence, at 10 µM;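 also: percent of carrier control wells set as 100% viability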
Answer each item with its documented viability.
Write the value in % as a bare number.

For Cc1nn(C)c(C)c1CN(C)C(=O)c1cc2nc(-c3ccco3)cc(C(F)(F)F)n2n1 the compound record lists viability as 77

For COc1ccc(-c2cc3nc4n(c(=O)c3s2)CCC4)cc1 the compound record lists viability as 129

For CCN(CC)CC#CCOC(=O)C(O)(c1ccccc1)C1CCCCC1 (configuration not stated) the compound record lists viability as 82

For Cn1cccc1-c1cc(C(=O)O)[nH]n1 the compound record lists viability as 129

For COc1cc(OC)cc(-c2nnc(SCC(=O)Nc3cc(C)on3)o2)c1 the compound record lists viability as 92.5

For O=C(c1ccccc1)c1ccncc1 the compound record lists viability as 100

For S=C(N=Nc1ccccc1)NNc1ccccc1 the compound record lists viability as 118

For COc1ccc(CN2C(=O)c3cccnc3C2Nc2cc(Cl)ccc2OC)cc1 (configuration not stated) the compound record lists viability as 84.5

For O=C(CN1C(=O)c2cccc3cccc1c23)N1CCN(c2ccccc2)CC1 the compound record lists viability as 100

For COC(=O)c1ccc2ncccc2c1 the compound record lists viability as 110

For O=C(c1ccccc1Br)N1CCN(c2ccccc2)CC1 the compound record lists viability as 85

For CCN(CC)c1nc2nonc2nc1N(CC)CC the compound record lists viability as 101

---

Answer each item with its documented viability.
assay: SK-BR-3 cell growth inhibitors, pilot screen, 24 h, human (AID 572); conditions: SK-BR-3 viability, CellTiter-Glo luminescence, at 10 µM, stronger effect = lower value;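 also: compound exposure lasted between 18 and 24 h rather than exactly 24 h; 100% = carrier-treated control wells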
Write the value in % as a bare number.

For Cc1oc(-c2ccccc2F)nc1CS(=O)(=O)CC(=O)NCCCN1CCc2ccccc2C1 the compound record lists viability as 81.5

For CNC(=O)c1nnn(Cc2ccccc2)c1NC(C)=O the compound record lists viability as 97.5

For OCc1cn(-c2ccccc2)nc1-c1ccc2c(c1)OCCO2 the compound record lists viability as 93

For Cc1occc1-c1nnc(SCC(=O)NCC2CCCO2)n1C (centres undefined) the compound record lists viability as 86

For Cc1cc(NC(=O)CSc2nccn2-c2ccc(F)cc2)no1 the compound record lists viability as 85.5

For O=C(Nc1ncc(Br)s1)C1CCCN1S(=O)(=O)c1cccc2cccnc12 (centres undefined) the compound record lists viability as 93

For CCn1c(SCC(=O)NCc2ccco2)nc2c(c1=O)SC(C)C2 (centres undefined) the compound record lists viability as 95

For CCN(CC)c1ccc(NC(=O)CN2CCN(CC(=O)Nc3ccccc3F)CC2)cc1 the compound record lists viability as 81.5

For Nc1ccc2cn[nH]c2c1 the compound record lists viability as 100

For CN(C)C(=O)N1CCCC(C(=O)NCc2ccccc2)C1 (centres undefined) the compound record lists viability as 89

For CCN(CC)CCN1C(=O)C(=O)/C(=C(/O)c2c(C)[nH]c(C(=O)OC)c2C)C1c1ccco1 (centres undefined) the compound record lists viability as 88

For Cn1c(=O)c2[nH]c(NCC3CCCO3)nc2n(-c2ccccc2)c1=O (centres undefined) the compound record lists viability as 94.5

For OC1C[N+]2(CCCCC2)C1 the compound record lists viability as 98

For CCN(CC)c1nc2nonc2nc1N(CC)CC the compound record lists viability as 101

For COc1cccc(CNC(=O)C2CCN(c3cnccn3)CC2)c1 the compound record lists viability as 87.5

For CCC1CCCN1Cn1cnc2c([nH]c3ccc(OC)cc32)c1=O (centres undefined) the compound record lists viability as 104

For CC(=O)Nc1ccc(Oc2ccc3nc(C)[nH]c3c2)cc1 the compound record lists viability as 97.5

For COc1ccc(-n2c(=O)[nH]cc(C(=O)Nc3ccc(NC(C)=O)cc3)c2=O)cc1 the compound record lists viability as 100

For CCCNC(=O)c1ccccc1NC(=O)CN(c1ccccc1OCC)S(C)(=O)=O the compound record lists viability as 87

For O=C(CSc1ncnc2ccccc12)NCCCO the compound record lists viability as 104

For O=C1CCc2cc(S(=O)(=O)N3CCC(C(=O)Nc4nccs4)CC3)ccc2N1 the compound record lists viability as 98

For Cc1nnc(SCC(=O)Nc2cc(C(F)(F)F)ccc2N2CCOCC2)o1 the compound record lists viability as 93

For O=C(CCN1CCN(C(=O)c2ccco2)CC1)Nc1ccc(F)cc1 the compound record lists viability as 97.5

For CCn1c(=O)cc(OCC(=O)Nc2cc(C)ccn2)c2ccccc21 the compound record lists viability as 80

---

test: OD615 S. cerevisiae growth inhibition, permissive medium, pilot counter-assay, permissive growth control for S. cerevisiae lifespan shortening project (AID 705); details: OD615, 24 h, at 10 µM, stronger effect = higher value
outcome-measure: growth inhibition (%)
Write the value in % as a bare number.

For O=C(Nc1ccccc1)N(CCc1ccncc1)C1CCCCC1 the molecule record lists growth inhibition as -7

For CC1(C)Nc2ccccc2N(CC(=O)N2CCCCC2)C1=O the molecule record lists growth inhibition as 0.325

For CCOc1cccc(C(=O)Nc2cc(-c3nn4c(C)nnc4s3)ccc2C)c1 the molecule record lists growth inhibition as 9.19

For N#C/C(=C1/CCCCCN1)c1nnc2n1CCCCC2 the molecule record lists growth inhibition as -8.48

For CCN(CCNC(=O)C1CCCN(S(=O)(=O)c2cnc[nH]2)C1)c1ccccc1 (configuration not stated) the molecule record lists growth inhibition as -0.145

For CCCCCn1c(CNC(=O)CC)nc2ccccc21 the molecule record lists growth inhibition as -6.04

For CCc1cc2c(=O)c(-c3nc4ccccc4n3C)c(C(C)C)oc2c(CN2CCN(C)CC2)c1O the molecule record lists growth inhibition as -3.21

For COc1ccc(-n2c(Cc3cc(=O)[nH]c(=O)[nH]3)nnc2SCC(=O)N2CCC(C)CC2)cc1 the molecule record lists growth inhibition as -11.5

For COC(=O)CN(c1ccccc1)S(=O)(=O)c1ccccc1 the molecule record lists growth inhibition as -15.8

For CCn1c(=O)c(=O)[nH]c2cc(C(=O)NC3CCCc4ccccc43)ccc21 (configuration not stated) the molecule record lists growth inhibition as -2.89

For CCOC(=O)C1CCCN(C(=O)CC(C)c2ccccc2)C1 (configuration not stated) the molecule record lists growth inhibition as -14.4

For CCOC(=O)C1CCN(C(=O)c2ccc(NC(=O)C3CCCO3)cc2)CC1 (configuration not stated) the molecule record lists growth inhibition as -14.9

For CN1CCN(S(=O)(=O)c2ccc(-c3ccc(S(=O)(=O)N4CCN(C)CC4)cc3)cc2)CC1 the molecule record lists growth inhibition as -23.4

For Cc1cccc(N=C2NC(=O)/C(=C3/C(=O)N(C)c4ccccc43)S2)c1C the molecule record lists growth inhibition as -18.4

For CCN1CCN(CCNC(=O)C2CCCN(Cc3nc(-c4cccc(Cl)c4)oc3C)C2)CC1 (configuration not stated) the molecule record lists growth inhibition as -9.33

For COc1ccc(N(CC(=O)NCc2ccc3c(c2)OCO3)S(=O)(=O)c2c(C)nn(C)c2C)cc1 the molecule record lists growth inhibition as -12.2

For Cc1ncc(CO)c2cc(S(=O)(=O)c3ccc(F)cc3)c(=O)oc12 the molecule record lists growth inhibition as -11.8

For CCCCCOC(=O)c1[nH]c2c(c1C)C(=O)CC(c1ccco1)C2 (configuration not stated) the molecule record lists growth inhibition as -15

For O=C(Nc1nnc(C2CC2)o1)c1ccc(S(=O)(=O)N2CCCc3ccccc32)cc1 the molecule record lists growth inhibition as -18.1

For CCOC(=O)Nc1cc(C(=O)OCC)c(C)nc1C the molecule record lists growth inhibition as -8.02

For COc1ccc(OC)c(NC(=O)C(CC(C)C)NC(=O)C2CCCCC2)c1 (configuration not stated) the molecule record lists growth inhibition as -5.08

For O=C(Cn1cc2c(n1)CCCCC2)NCc1ccccn1 the molecule record lists growth inhibition as -5.75

---

Answer each item with its documented viability.
experiment: reversal of MRP1-mediated doxorubicin resistance, pilot screen, H69AR cells, doxorubicin co-treatment (AID 601); conditions: H69AR cells + 2 uM doxorubicin, CellTiter-Glo, 72 h; measured here: viability with 2 uM doxorubicin; at 10 µM; stronger effect = lower value
Write the value in % as a bare number.

For CCN(CC)CCn1c2ccccc2c2nc(C)sc21 the compound record lists viability as 100

For O=C(NCc1ccccc1)C1CCCN1S(=O)(=O)c1cccc2cccnc12 (stereo not drawn) the compound record lists viability as 94.4

For O=C(NC1CCCC1)c1ccc2nc[nH]c2c1 the compound record lists viability as 81.7

For COCCCn1c(SCC(=O)Nc2cccc(C)n2)nnc1-c1ccco1 the compound record lists viability as 85.6

For COc1ccc(C(=O)Nc2cccc(C)c2)cc1S(=O)(=O)N1CCOCC1 the compound record lists viability as 85.5

For Cc1cc(C)n2cc(CSCc3ccco3)nc2n1 the compound record lists viability as 86.4

For CCN=C1SC(CC(=O)Nc2ccccc2)C(=O)N1CC (stereo not drawn) the compound record lists viability as 94.9

For c1cn(CC2(Cn3ccnc3)COC2)cn1 the compound record lists viability as 87.8

For COc1cc(OC)cc(C(=O)N2c3ccc(F)cc3CCC2C)c1 (stereo not drawn) the compound record lists viability as 90.7

For CC(C)N(C(=O)CSc1nnc(-c2cc3ccccc3cc2O)n1Cc1ccco1)C(C)C the compound record lists viability as 81.9

For Cc1ccc(NC(=O)C2CCCN(S(=O)(=O)c3cnc[nH]3)C2)c(Br)c1 (stereo not drawn) the compound record lists viability as 93.3

For CCCCOc1ccc(OCCCN2CCOCC2)cc1 the compound record lists viability as 95.2

For CCOC(=O)c1oc2ccccc2c1CSc1nnnn1-c1ccc(OC)cc1 the compound record lists viability as 73.9

For Cc1ccccc1-c1nc(CN2CCC(C(=O)NCCCN3CCCC3)CC2)c(C)o1 the compound record lists viability as 89.3

For COc1ccc(CN2C(=O)c3cccnc3C2Nc2cc(Cl)ccc2OC)cc1 (stereo not drawn) the compound record lists viability as 92.5

For Cc1cc(C(=O)NCc2cccnc2)n(-c2ccccc2)n1 the compound record lists viability as 92.9

For CC(=O)NC1(c2nnnn2CCOC(=O)Nc2ccc(Cl)cc2)CCCCC1 the compound record lists viability as 85.4

For CC(=O)Nc1ccc(S(=O)(=O)N2CCC(NC(C)=O)(c3cccc(F)c3)CC2)cc1 the compound record lists viability as 90.5

For CN(C(=O)c1ccc2c(=O)n3c(nc2c1)CCCCC3)c1ccccc1 the compound record lists viability as 101

For CC(C)CCNC(=O)NC(=O)CSc1nnc(COc2ccccc2Cl)o1 the compound record lists viability as 87.1

For O=C(OCc1cc2ccccc2[nH]c1=O)c1ccco1 the compound record lists viability as 93.3

For COC(=O)Nc1sc2c(c1C(=O)N1CCOCC1)CCC(C)C2 (stereo not drawn) the compound record lists viability as 95.6

For O=C(NC1CCCCC1)c1cc2nc(-c3ccco3)cc(C(F)(F)F)n2n1 the compound record lists viability as 83.2

Every entry's value here was drawn from PubChem BioAssay.
